The reported measurements were obtained from PubChem BioAssay (NCI).

- System: A498 renal
- ASSAY OVERVIEW: NCI-60 one-dose screen, 48 h (100 = growth as untreated, 0 = no growth, -100 = all killed)
- PROTOCOL CONDITIONS: 10 µM unless noted
About 83,000 compounds went through this panel and 20% of them were active in at least one assay; those are over-represented in the sample as a whole.
# if value of growth reaches 90%, tag criterion met; if it stays below, tag criterion not met

Previously resolved entries follow.
COMPOUND	EXPERIMENTAL TARGET	CLASS NAME
C/C(=C\c1cnc(C)s1)[C@@H]1C[C@@H]2O[C@@H]2CCC[C@H](C)[C@H](O)[C@@H](C)C(=O)C(C)(C)[C@@H](O)CC(=O)O1	A498 renal	criterion not met
C1=CC2=CC=C3C=CC=C4C(c5nc6c7ccccc7c7ccccc7c6[nH]5)=CC(=C1)C2C34 (centres undefined)	A498 renal	criterion not met
C=C1C(=O)O[C@H]2[C@H]1CC/C(COC(=O)c1c[nH]c3ccccc13)=C\CC[C@@]1(C)O[C@@H]21	A498 renal	criterion not met
COc1ccc(/C=C(/C(=O)N2CCN(Cc3ccccc3)CC2)c2cc(OC)c(OC)c(OC)c2)cc1O	A498 renal	criterion not met
C=C1C(=O)O[C@H]2[C@H]1CC/C(COC(=O)c1cc3ccccc3o1)=C\CC[C@@]1(C)O[C@@H]21	A498 renal	criterion met
COc1ccc(C(C)c2cc(OC)c(OC)c(OC)c2)cc1 (centres undefined)	A498 renal	criterion not met

Decide: is the reported value of growth for O=C1C(=O)c2c(nc3ccc(C(F)(F)F)cn23)-c2ccccc21 equal to or greater than 90%?
criterion not met
